pIC50 values, listed per item
- tested target: FAAH (Homo sapiens, UniProt O00519)
- Construct: The full length FAAH was subcloned into the mammalian expression vector, pcDEF.neo; expressed in transfected cells; cDNA from Origene
- Sequence (O00519 whole entry): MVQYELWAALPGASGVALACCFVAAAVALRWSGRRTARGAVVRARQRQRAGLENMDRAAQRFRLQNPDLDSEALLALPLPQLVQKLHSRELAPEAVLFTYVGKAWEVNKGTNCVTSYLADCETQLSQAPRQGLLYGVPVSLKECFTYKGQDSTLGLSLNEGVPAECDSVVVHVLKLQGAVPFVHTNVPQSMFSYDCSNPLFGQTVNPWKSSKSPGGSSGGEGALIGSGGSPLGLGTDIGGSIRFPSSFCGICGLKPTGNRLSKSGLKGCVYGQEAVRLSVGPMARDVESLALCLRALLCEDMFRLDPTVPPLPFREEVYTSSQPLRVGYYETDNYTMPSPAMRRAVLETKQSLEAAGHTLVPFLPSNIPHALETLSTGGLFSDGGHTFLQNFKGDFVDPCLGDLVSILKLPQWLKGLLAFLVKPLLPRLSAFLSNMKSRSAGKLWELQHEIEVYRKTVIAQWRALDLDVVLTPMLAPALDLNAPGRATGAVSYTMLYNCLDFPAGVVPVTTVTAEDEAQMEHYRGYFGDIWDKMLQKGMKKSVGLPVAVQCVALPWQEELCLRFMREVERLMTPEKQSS
- method notes: FAAH enzyme assay, lysate of CHO cells expressing human FAAH
- Format: biochemical
- measurement setup: cell lysate, read-out: FAAH Human Cell Lysate IC50
- From the text: To assist in assay development stable cell lines for human, murine and rat full length FAAH were developed. Human FAAH cDNA (Accession No: NM_001441.1) was purchased from Origene (Rockville, Md.). The full length FAAH was subcloned into the mammalian expression vector, pcDEF.neo, using XbaI and […] restriction sites and used for stable cell line generation. CHO cells expressing FAAH were used to prepare either crude cell lysate or microsome fractions. […]
pIC50: −log10 of the molar value.

- chemical structure: "CCN1CCc2cc(-c3nn(CC)cc3Sc3ccc(Cl)cc3)ccc2C1=O"
  pIC50: 7.60
- chemical structure: "N#Cc1ccc2cc(-c3nn(C4CC4)cc3Sc3ccc(Cl)cn3)ccc2n1"
  pIC50: 6.76
- chemical structure: "Cn1cc(Sc2ccc(Cl)cc2)c(-c2ccc3nc(C(N)=O)ccc3c2)n1"
  pIC50: 9.33

###

pIC50 reference
- tested target: FAAH (Homo sapiens)
- Construct: The full length FAAH was subcloned into the mammalian expression vector, pcDEF.neo; expressed in transfected cells; cDNA from Origene
- method notes: FAAH enzyme assay, lysate of CHO cells expressing human FAAH
- Format: biochemical
- measurement setup: cell lysate, read-out: FAAH Human Cell Lysate IC50
pIC50: −log10 of the molar value.
metric name: pIC50

- compound: "CCNC(=O)c1ccc2cc(-c3nn(CC(F)F)cc3Sc3ccc(Cl)cc3)ccc2n1"
  experimental result: 7.70
- compound: "FC(F)c1ccc2cc(-c3nn(-c4ccccn4)cc3Sc3ccc(Cl)cc3)ccc2n1"
  experimental result: 8.31
- compound: "FC(F)c1ccc2cc(-c3nn(C4CC4)cc3Sc3ccc(Cl)cn3)ccc2n1"
  experimental result: 7.54
- compound: "OC(c1ccc2cc(-c3nn(CCF)cc3Sc3ccc(Cl)cc3)ccc2n1)C(F)(F)F (centres unmarked)"
  experimental result: 7.31
- compound: "O=C1NCCc2cc(-c3nn(CCF)cc3Sc3ccc(Cl)cc3)ccc21"
  experimental result: 7.04
- compound: "CC(C)(O)c1ccc2cc(-c3nn(CCF)cc3Sc3ccc(Cl)cc3)ccc2n1"
  experimental result: 6.92
- compound: "CCC(=O)N1CCc2cc(-c3n[nH]cc3Sc3ccc(Cl)cc3)ccc2C1"
  experimental result: 6.77
- compound: "CC(C)(O)c1ccc(-c2nn(-c3ccc(F)cn3)cc2Sc2ccc(Cl)cc2)nn1"
  experimental result: 7.23
- compound: "CCOC(=O)c1cnc2cc(-c3n[nH]cc3Sc3ccc(Cl)cc3)cnc2c1"
  experimental result: 7.85
- compound: "CCOC(=O)c1ccc2cc(-c3nn(C)cc3Sc3ccc(Cl)cc3)ccc2n1"
  experimental result: 8.66
- compound: "N#Cc1ccc2cc(-c3n[nH]cc3Sc3ccc(Cl)cc3)ccc2n1"
  experimental result: 7.64
- compound: "CCn1cc(Sc2ccc(Cl)cc2)c(-c2ccc3c(c2)CCN(CCF)C3=O)n1"
  experimental result: 7.33
- compound: "CCNC(=O)c1ccc2cc(-c3nn(CC(C)C)cc3Sc3ccc(Cl)cc3)ccc2n1"
  experimental result: 7.92
- compound: "CCOC(=O)c1ccc2cc(-c3nn(C4CC4)cc3Sc3ccc(Cl)cn3)ccc2n1"
  experimental result: 7.96
- compound: "CC(=O)N1CCc2cc(-c3nn(CCF)cc3Sc3ccc(Cl)cc3)ccc2C1"
  experimental result: 7.32
- compound: "O=c1[nH]cnc2cc(-c3n[nH]cc3Sc3ccc(Cl)cc3)ccc12"
  experimental result: 6.64
- compound: "CCNC(=O)c1cnc2cc(-c3nn(CCF)cc3Sc3ccc(Cl)cc3)ccc2c1"
  experimental result: 7.82
- compound: "CCN1CCc2cc(-c3nn(-c4ccc(F)cc4)cc3Sc3ccc(Cl)cc3)ccc2C1=O"
  experimental result: 7.80
- compound: "CC(C)(O)c1ccc2cc(-c3n[nH]cc3Sc3ccc(Cl)cc3)ccc2n1"
  experimental result: 6.37
- compound: "O=C1CCc2cc(-c3nn(-c4ccccn4)cc3Sc3ccc(Cl)cc3)ccc2N1"
  experimental result: 7.44
- compound: "CCOC(=O)c1ccc2cc(-c3n[nH]cc3Sc3ccc(Cl)cn3)ccc2n1"
  experimental result: 9.11
- compound: "CCOC(=O)c1ccc2cc(-c3n[nH]cc3Sc3ccc(Cl)cc3)ccc2n1"
  experimental result: 9.03
- compound: "Cn1cc(Sc2ccc(Cl)cc2)c(-c2ccc3nc(C#N)ccc3c2)n1"
  experimental result: 6.88
- compound: "OCc1ccc2cc(-c3nn(CCF)cc3Sc3ccc(Cl)cc3)ccc2n1"
  experimental result: 7.52
- compound: "CCNC(=O)c1cnc2cc(-c3nn(CCF)cc3Sc3ccc(Cl)cc3)cnc2c1"
  experimental result: 7.33
- compound: "CCOC(=O)c1cnc2cc(-c3nn(CCF)cc3Sc3ccc(Cl)cc3)cnc2c1"
  experimental result: 7.80
- compound: "CN(C)C(=O)c1ccc2cc(-c3nn(C4CC4)cc3Sc3ncc(Cl)cn3)ccc2n1"
  experimental result: 6.54
- compound: "O=C1CCc2cc(-c3nn(-c4ccccn4)cc3Sc3ccc(Cl)cc3)ccc2N1CCF"
  experimental result: 7.82
- compound: "O=C1NCCc2cc(-c3nn(-c4ccc(F)cc4)cc3Sc3ccc(Cl)cc3)ccc21"
  experimental result: 7.74
- compound: "O=C1NCCc2cc(-c3nn(-c4ccccn4)cc3Sc3ccc(Cl)cc3)ccc21"
  experimental result: 8.10
- compound: "O=C1c2ccc(-c3nn(-c4ccccn4)cc3Sc3ccc(Cl)cc3)cc2CCN1CCF"
  experimental result: 8.57
- compound: "CC(=O)N1CCc2cc(-c3n[nH]cc3Sc3ccc(Cl)cc3)ccc2C1"
  experimental result: 7.00
